Assay: Kinetic solubility assay
Format: physicochemical
Settings: 25 °C, aqueous buffer, kinetic from dmso stock; K.S. 5.4 buffer pH 5.4, dose conc 200 μM, 24 hours at room temperature (25±2° C.); read-out: Kinetic Solubility pH = 5.4
Readout Kind: solubility kinetic at 24 h (µM)
# number only, unit µM dropped from output

Compound	solubility kinetic at 24 h / µM
CC/C=C/[C@H]1CCC[C@H](OC2CCC(N(C)C)C(C)O2)[C@@H](C)C(=O)C2=C[C@@H]3[C@@H](C=C[C@]4(OC)C[C@@H](OC5OC(C)C(OC)C(OC)C5OC)C[C@@H]34)[C@@H]2CC(=O)O1 (stereo partly drawn) [Compound H1, 7-methoxy butenyl spinosyn α1]	183
CC/C=C/[C@H]1CCC[C@H](OC2CCC(N(C)C)C(C)O2)[C@@H](C)C(=O)C2=C[C@@H]3[C@@H](C=C[C@]4(O)C[C@@H](OC5OC(C)C(OC)C(OC)C5OC)C[C@@H]34)[C@@H]2CC(=O)O1 (stereo partly drawn) [Compound A1, 7-hydroxy butenyl spinosyn α1]	192

Field: next compound
Quick note, solubility kinetic at 24 h for CC/C=C/[C@H]1CCC[C@H](OC2CCC(N(C)C)C(C)O2)[C@@H](C)C(=O)C2=C[C@@H]3[C@@H](C=C[C@]4(OCC)C[C@@H](OC5OC(C)C(OC)C(OC)C5OC)C[C@@H]34)[C@@H]2CC(=O)O1 (stereo partly drawn) [Compound H2, 7-ethoxy butenyl spinosyn al] landed at 166

----------
Assay: UV-stability of 5 mM solutions in acetonitrile, remaining compound by HPLC
Type: physicochemical
Conditions: under UV light at 254 nm, 1 h
Known share of remaining compound 1 h of a selection of molecules
Use % as the unit, but write only the number.

Check out these entries, answers already filled in.
Molecule	share of remaining compound 1 h (%)
CC/C=C/[C@H]1CCC[C@H](OC2CCC(N(C)C)C(C)O2)[C@@H](C)C(=O)C2=C[C@@H]3[C@@H](C=C[C@]4(OC)C[C@@H](OC5OC(C)C(OC)C(OC)C5OC)C[C@@H]34)[C@@H]2CC(=O)O1 (stereo partly drawn) [Compound H1, 7-methoxy butenyl spinosyn α1]	95.6
CCC=CC1CCCC(OC2CCC(N(C)C)C(C)O2)C(C)C(=O)C2=CC3C(C=CC4CC(OC5OC(C)C(OC)C(OC)C5OC)CC43)C2CC(=O)O1 (stereo not drawn) [Butenyl spinosyn, butenyl spinosyn α1, reference compound]	88.6
CC/C=C/[C@H]1CCC[C@H](OC2CCC(N(C)C)C(C)O2)[C@@H](C)C(=O)C2=C[C@@H]3[C@@H](C=C[C@]4(OCC)C[C@@H](OC5OC(C)C(OC)C(OC)C5OC)C[C@@H]34)[C@@H]2CC(=O)O1 (stereo partly shown) [Compound H2, 7-ethoxy butenyl spinosyn al]	87.6

Okay, now this molecule:
Documented share of remaining compound 1 h of CC/C=C/[C@H]1CCC[C@H](OC2CCC(N(C)C)C(C)O2)[C@@H](C)C(=O)C2=C[C@@H]3[C@@H](C=C[C@]4(O)C[C@@H](OC5OC(C)C(OC)C(OC)C5OC)C[C@@H]34)[C@@H]2CC(=O)O1 (stereo partly drawn) [Compound A1, 7-hydroxy butenyl spinosyn α1] : 86.6

----------
Form field: Purity changing (one value per entry).
Test: UV-stability of 5 mM solutions in acetonitrile, remaining compound by HPLC
Assay type: physicochemical
Details: under UV light at 254 nm, 0 h to 10 h
Please respond with the number in % and leave the unit unwritten.

Examples with their reported Purity changing follow.
Molecule	Unit Symbol	Purity changing
CC/C=C/[C@H]1CCC[C@H](OC2CCC(N(C)C)C(C)O2)[C@@H](C)C(=O)C2=C[C@@H]3[C@@H](C=C[C@]4(OCC)C[C@@H](OC5OC(C)C(OC)C(OC)C5OC)C[C@@H]34)[C@@H]2CC(=O)O1 (stereo partly shown) [Compound H2, 7-ethoxy butenyl spinosyn al]	%	−53.5
CCC=CC1CCCC(OC2CCC(N(C)C)C(C)O2)C(C)C(=O)C2=CC3C(C=CC4CC(OC5OC(C)C(OC)C(OC)C5OC)CC43)C2CC(=O)O1 (stereo not drawn) [Butenyl spinosyn, butenyl spinosyn α1, reference compound]	%	−30.4
CC/C=C/[C@H]1CCC[C@H](OC2CCC(N(C)C)C(C)O2)[C@@H](C)C(=O)C2=C[C@@H]3[C@@H](C=C[C@]4(O)C[C@@H](OC5OC(C)C(OC)C(OC)C5OC)C[C@@H]34)[C@@H]2CC(=O)O1 (stereo partly drawn) [Compound A1, 7-hydroxy butenyl spinosyn α1]	%	−38.5

// below: Purity changing requested for another molecule
Per the records, this molecule ( CC/C=C/[C@H]1CCC[C@H](OC2CCC(N(C)C)C(C)O2)[C@@H](C)C(=O)C2=C[C@@H]3[C@@H](C=C[C@]4(OC)C[C@@H](OC5OC(C)C(OC)C(OC)C5OC)C[C@@H]34)[C@@H]2CC(=O)O1 (stereo partly drawn) [Compound H1, 7-methoxy butenyl spinosyn α1] ) has Purity changing equal to −22.5

----------
share of remaining compound 5 h reference
Experiment: UV-stability of 5 mM solutions in acetonitrile, remaining compound by HPLC
Type: physicochemical
Settings: under UV light at 254 nm, 5 h
Note: unit % is implicit; provide only the numeric part.

// recorded share of remaining compound 5 h for CCC=CC1CCCC(OC2CCC(N(C)C)C(C)O2)C(C)C(=O)C2=CC3C(C=CC4CC(OC5OC(C)C(OC)C(OC)C5OC)CC43)C2CC(=O)O1 (stereo not drawn) [Butenyl spinosyn, butenyl spinosyn α1, reference compound] : 70.9

response.value for CC/C=C/[C@H]1CCC[C@H](OC2CCC(N(C)C)C(C)O2)[C@@H](C)C(=O)C2=C[C@@H]3[C@@H](C=C[C@]4(OC)C[C@@H](OC5OC(C)C(OC)C(OC)C5OC)C[C@@H]34)[C@@H]2CC(=O)O1 (stereo partly drawn) [Compound H1, 7-methoxy butenyl spinosyn α1] (field: share of remaining compound 5 h) = 87.5

Lab book: share of remaining compound 5 h of CC/C=C/[C@H]1CCC[C@H](OC2CCC(N(C)C)C(C)O2)[C@@H](C)C(=O)C2=C[C@@H]3[C@@H](C=C[C@]4(O)C[C@@H](OC5OC(C)C(OC)C(OC)C5OC)C[C@@H]34)[C@@H]2CC(=O)O1 (stereo partly drawn) [Compound A1, 7-hydroxy butenyl spinosyn α1] noted as 71.3

For this compound ( CC/C=C/[C@H]1CCC[C@H](OC2CCC(N(C)C)C(C)O2)[C@@H](C)C(=O)C2=C[C@@H]3[C@@H](C=C[C@]4(OCC)C[C@@H](OC5OC(C)C(OC)C(OC)C5OC)C[C@@H]34)[C@@H]2CC(=O)O1 (stereo partly shown) [Compound H2, 7-ethoxy butenyl spinosyn al] ), measured share of remaining compound 5 h is 67.8

----------
Assay: Kinetic solubility assay
Assay type: physicochemical
Details: 25 °C, aqueous buffer, kinetic from dmso stock; K.S. 7.4 buffer pH 7.4, dose conc 200 μM, 24 hours at room temperature (25±2° C.); read-out: Kinetic Solubility pH = 7.4
This section presents compounds with their documented solubility kinetic at 24 h values.
Give the value in µM but do not write µM after it.

Would you please look over these solved cases?
Compound	Reported Measurement
CC/C=C/[C@H]1CCC[C@H](OC2CCC(N(C)C)C(C)O2)[C@@H](C)C(=O)C2=C[C@@H]3[C@@H](C=C[C@]4(O)C[C@@H](OC5OC(C)C(OC)C(OC)C5OC)C[C@@H]34)[C@@H]2CC(=O)O1 (stereo partly drawn) [Compound A1, 7-hydroxy butenyl spinosyn α1]	187
CC/C=C/[C@H]1CCC[C@H](OC2CCC(N(C)C)C(C)O2)[C@@H](C)C(=O)C2=C[C@@H]3[C@@H](C=C[C@]4(OC)C[C@@H](OC5OC(C)C(OC)C(OC)C5OC)C[C@@H]34)[C@@H]2CC(=O)O1 (stereo partly drawn) [Compound H1, 7-methoxy butenyl spinosyn α1]	77.1

Now look at this entry.
// field: solubility kinetic at 24 h; key: CC/C=C/[C@H]1CCC[C@H](OC2CCC(N(C)C)C(C)O2)[C@@H](C)C(=O)C2=C[C@@H]3[C@@H](C=C[C@]4(OCC)C[C@@H](OC5OC(C)C(OC)C(OC)C5OC)C[C@@H]34)[C@@H]2CC(=O)O1 (stereo partly drawn) [Compound H2, 7-ethoxy butenyl spinosyn al] ; value = 7.68

Entry source: patent US20240262856A1
